The measurements presented in this section are drawn from paper PMC3445454.

# EXPERIMENTAL_SYSTEM: HLA-DR DRB1*12:01 (Homo sapiens, UniProt P01903+P01911, A100R/A169T/D57E/D86V/F55L/H45Y/K41T/L162R/M171V/P40S/Q125H/Q178H/Q39Y/Q99D/R42G/S66L/T262R/V114A/V67L/W38E/Y59H/Y61H/Y89S)
# MEASUREMENT_PROTOCOL: biochemical
# Format: binding
# CONDITION_LABEL: read-out: Binding capacity/IC50 (nM) DRB1*12:01
EXPERIMENTAL_ENDPOINT: IC50 (nM)
One number for each entry, in nM.

Here are 3 compounds together with their reported answers.
{"columns": ["COMPOUND", "IC50 / nM"],
 "data": [
  ["CC[C@H](C)[C@H](NC(=O)CNC(=O)[C@H](CCCCN)NC(=O)[C@H](Cc1c[nH]cn1)NC(=O)[C@H](C)NC(=O)[C@@H]1CCCN1C(=O)[C@@H](NC(=O)[C@H](Cc1c[nH]c2ccccc12)NC(=O)[C@H](CO)NC(=O)[C@H](CC(C)C)NC(=O)[C@H](Cc1ccc(O)cc1)NC(=O)[C@@H](NC(=O)[C@H](CCCCN)NC(=O)[C@H](CCC(=O)O)NC(=O)[C@@H](N)CCCCN)C(C)C)C(C)C)C(=O)NCC(=O)NCC(=O)N[C@@H](CC(N)=O)C(=O)N[C@@H](CCC(=O)O)C(N)=O [RT(528-546)]", 2100],
  ["CC[C@H](C)[C@H](NC(=O)[C@H](Cc1ccc(O)cc1)NC(=O)CNC(=O)[C@H](CO)NC(=O)[C@H](C)NC(=O)[C@@H](NC(=O)[C@H](Cc1c[nH]cn1)NC(=O)[C@@H](NC(=O)[C@H](C)NC(=O)[C@@H](NC(=O)[C@H](CC(C)C)NC(=O)[C@@H](NC(=O)[C@@H](NC(=O)[C@H](CCCCN)NC(=O)CNC(=O)[C@@H](N)CCC(=O)O)[C@@H](C)CC)[C@@H](C)CC)C(C)C)C(C)C)C(C)C)C(=O)N[C@@H](CCC(=O)O)C(N)=O [integrase(69-85)]", 2940],
  ["CC[C@H](C)[C@H](NC(=O)[C@@H]1CCCN1C(=O)[C@H](CCC(=O)O)NC(=O)[C@@H](N)CCCCN)C(=O)N[C@H](C(=O)NCC(=O)N[C@@H](C)C(=O)N[C@@H](CCC(=O)O)C(=O)N[C@H](C(=O)N[C@@H](Cc1ccccc1)C(=O)N[C@@H](Cc1ccc(O)cc1)C(=O)N[C@H](C(=O)N[C@@H](CC(=O)O)C(=O)NCC(=O)N[C@@H](C)C(N)=O)C(C)C)[C@@H](C)O)C(C)C [RT(431-445)]", 293]
]}

Here is the next item to consider.
IC50 measured on CC[C@H](C)[C@H](NC(=O)[C@@H](NC(=O)[C@H](CCCCN)NC(=O)[C@@H](NC(=O)[C@@H]1CCCN1C(=O)[C@H](Cc1c[nH]c2ccccc12)NC(=O)[C@H](CCCNC(=N)N)NC(=O)CNC(=O)[C@H](C)NC(=O)[C@H](CC(C)C)NC(=O)[C@H](CCCCN)NC(=O)[C@H](CC(C)C)NC(=O)[C@@H](NC(=O)[C@H](Cc1ccccc1)NC(=O)[C@H](Cc1ccc(O)cc1)NC(=O)[C@H](C)NC(=O)[C@@H](NC(=O)[C@@H](N)CCC(=O)O)[C@@H](C)O)[C@@H](C)CC)C(C)C)C(C)C)C(N)=O [integrase(96-113)] = 1510

* * *

# EXPERIMENTAL_SYSTEM: HLA-DP DPA1*02:01/DPB1*14:01 (Homo sapiens, UniProt P04440+P20036, A65V/A84D/A85E/E86D/F191V/F38H/G113D/G114E/G40L/I94L/K142R/L158P/L37V/M105V/M116V/M62Q/P115A/Q81R/R125K/T114A/T199I/T259P)
# Sequence (P20036 29-260 A42M/M62Q/Q81R/T114A/K142R/L158P/F191V/T259P): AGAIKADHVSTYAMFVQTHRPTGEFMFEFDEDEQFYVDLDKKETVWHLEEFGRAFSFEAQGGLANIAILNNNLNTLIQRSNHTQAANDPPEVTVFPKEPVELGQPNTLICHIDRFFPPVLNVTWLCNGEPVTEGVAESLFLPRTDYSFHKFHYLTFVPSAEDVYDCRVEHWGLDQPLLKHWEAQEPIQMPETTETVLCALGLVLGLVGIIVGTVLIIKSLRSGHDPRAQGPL
# Sequence (P04440 30-258 with the stated changes): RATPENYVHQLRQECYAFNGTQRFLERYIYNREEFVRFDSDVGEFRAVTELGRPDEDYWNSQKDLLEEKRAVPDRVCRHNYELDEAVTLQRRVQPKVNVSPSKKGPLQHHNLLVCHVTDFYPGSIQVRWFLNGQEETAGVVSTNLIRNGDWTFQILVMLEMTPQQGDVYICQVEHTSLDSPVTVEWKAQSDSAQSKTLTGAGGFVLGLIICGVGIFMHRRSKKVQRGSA
# MEASUREMENT_PROTOCOL: biochemical
# Format: binding
# CONDITION_LABEL: read-out: Binding capacity/IC50 (nM) DPA1*02:01 DPB1*14:01
Ends that are not written are not given here.
Assignment: determine reported log10(IC50) for the given substances.
Note the log scale: values are log10 of IC50 expressed in nM.

{"columns": ["SUBSTANCE", "RECORDED_NUMBER"],
 "data": [
  ["NYPIVQNLQGQMVHQAISPR-NH2 [p17(131-132)/p24(1-18)]", 3.48],
  ["LNKIVRMYSPVSILDI-NH2 [p24(138-153)]", 1.20],
  ["VVIQDNSDIKVVPRRKAKII-NH2 [integrase(249-268)]", 3.60]
]}

State the recorded log10(IC50) for every item in the following list.
1. IRYPLTFGWCFKLVPVDPREVEEA-NH2 [nef(133-156)]
2. DEELLKAVRIIKILYQSNP-NH2 [rev(9-27)]

4.20
2.85

* * *

# EXPERIMENTAL_SYSTEM: HLA-DR DRB3*02:02 (Homo sapiens, UniProt P01903+P79483, A212P/D57E/F66Y/L67A/R103Q/R218S/R40L/S89Y/T80R/V86D/Y55F/Y59H)
# Sequence (P01903 26-254 limits assumed): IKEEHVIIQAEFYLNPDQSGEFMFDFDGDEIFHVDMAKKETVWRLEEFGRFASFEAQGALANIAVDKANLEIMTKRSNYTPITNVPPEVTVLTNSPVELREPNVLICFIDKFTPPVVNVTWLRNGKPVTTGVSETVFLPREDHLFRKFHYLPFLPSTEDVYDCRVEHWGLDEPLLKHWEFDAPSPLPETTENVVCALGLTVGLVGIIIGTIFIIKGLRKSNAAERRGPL
# Sequence (P79483 30-266 R40L/Y55F/D57E/Y59H/F66Y/L67A/T80R/V86D/S89Y/R103Q/A212P/R218S limits assumed): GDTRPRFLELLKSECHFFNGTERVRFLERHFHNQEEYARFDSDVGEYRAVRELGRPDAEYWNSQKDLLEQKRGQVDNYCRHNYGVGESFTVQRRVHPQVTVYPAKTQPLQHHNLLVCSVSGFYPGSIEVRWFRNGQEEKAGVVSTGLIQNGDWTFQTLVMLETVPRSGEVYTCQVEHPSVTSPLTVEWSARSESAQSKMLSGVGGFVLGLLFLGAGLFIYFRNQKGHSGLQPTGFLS
# MEASUREMENT_PROTOCOL: biochemical
# Format: binding
Ends that are not written are not given here.
Assignment: determine reported IC50 for the given substances.

{"columns": ["SUBSTANCE", "IC50"],
 "data": [
  ["IVALIIAIVVWTIV-NH2 [vpu(13-26)]", "> 30 µM"],
  ["EAVRHFPRPWLHGL-NH2 [vpr(29-42)]", "9.49 µM"]
]}

Here is the next item to consider.
IC50 measured on VGSLQYLALTALITPKK-NH2 [vif(142-158)] = 0.577 µM

* * *

# EXPERIMENTAL_SYSTEM: HLA-DR DRB3*02:02 (Homo sapiens, UniProt P01903+P79483, A212P/D57E/F66Y/L67A/R103Q/R218S/R40L/S89Y/T80R/V86D/Y55F/Y59H)
# MEASUREMENT_PROTOCOL: biochemical
# Assay type: binding
# CONDITION_LABEL: read-out: Binding capacity/IC50 (nM) DRB3*02:02
EXPERIMENTAL_ENDPOINT: IC50
Field note: include the unit after the figure.

Here are 2 compounds together with their reported answers.
{"columns": ["TEST_SMILES", "RESULT"],
 "data": [
  ["CC[C@H](C)[C@H](NC(=O)[C@H](Cc1ccc(O)cc1)NC(=O)CNC(=O)[C@H](CO)NC(=O)[C@H](C)NC(=O)[C@@H](NC(=O)[C@H](Cc1c[nH]cn1)NC(=O)[C@@H](NC(=O)[C@H](C)NC(=O)[C@@H](NC(=O)[C@H](CC(C)C)NC(=O)[C@@H](NC(=O)[C@@H](NC(=O)[C@H](CCCCN)NC(=O)CNC(=O)[C@@H](N)CCC(=O)O)[C@@H](C)CC)[C@@H](C)CC)C(C)C)C(C)C)C(C)C)C(=O)N[C@@H](CCC(=O)O)C(N)=O", "7190 nM"],
  ["CC(C)C[C@H](NC(=O)[C@H](CCCCN)NC(=O)[C@@H](NC(=O)[C@H](CC(C)C)NC(=O)[C@@H]1CCCN1C(=O)[C@@H]1CCCN1C(=O)[C@@H](NC(=O)[C@H](CC(N)=O)NC(=O)[C@@H](NC(=O)[C@H](Cc1ccccc1)NC(=O)[C@H](CCC(=O)O)NC(=O)[C@H](Cc1c[nH]c2ccccc12)NC(=O)[C@@H](N)CCC(=O)O)C(C)C)[C@@H](C)O)C(C)C)C(=O)N[C@@H](Cc1c[nH]c2ccccc12)C(=O)N[C@@H](Cc1ccc(O)cc1)C(N)=O", "4.4 nM"]
]}

IC50 measured on "CC[C@H](C)[C@H](NC(=O)CNC(=O)[C@H](CCCCN)NC(=O)[C@H](Cc1c[nH]cn1)NC(=O)[C@H](C)NC(=O)[C@@H]1CCCN1C(=O)[C@@H](NC(=O)[C@H](Cc1c[nH]c2ccccc12)NC(=O)[C@H](CO)NC(=O)[C@H](CC(C)C)NC(=O)[C@H](Cc1ccc(O)cc1)NC(=O)[C@@H](NC(=O)[C@H](CCCCN)NC(=O)[C@H](CCC(=O)O)NC(=O)[C@@H](N)CCCCN)C(C)C)C(C)C)C(=O)NCC(=O)NCC(=O)N[C@@H](CC(N)=O)C(=O)N[C@@H](CCC(=O)O)C(N)=O" = 82 nM

* * *

# EXPERIMENTAL_SYSTEM: HLA-DR DRB1*13:02 (Homo sapiens, UniProt P01903+P01911, A100E/A169T/K41T/L162R/M171V/P40S/Q125H/Q178H/Q39Y/Q99D/R42S/S66N/T262R/V115G/W38E/Y61H)
# Sequence (P01903 26-254 limits assumed, other chains not shown): as the sequence (P01903 26-254 limits assumed) above
# MEASUREMENT_PROTOCOL: biochemical
# Type: binding
# CONDITION_LABEL: read-out: Binding capacity/IC50 (nM) DRB1*13:02
Ends that are not written are not given here.
Assignment: determine reported IC50 for the given substances.
Numbers only, in nM.

{"columns": ["SUBSTANCE", "RECORDED_NUMBER"],
 "data": [
  ["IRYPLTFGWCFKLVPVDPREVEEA-NH2 [nef(133-156)]", 4290]
]}

State the recorded IC50 for every item in the following list.
1. SEELRSLYNTVATLYCVHQ-NH2 [p17(72-90)]
2. YAKMRSAHTNDVKQL-NH2 [RT(354-368)]

1: 1050; 2: 74
